target: T1, biotinylated mesothelin ECD (Homo sapiens, UniProt Q13421); assay: Surface plasmon resonance (Biacore T200) binding affinity of purified scFvs; conditions: 1:1 Binding fit
T1 construct: made in house; host or cells: HEK293F (transient)
T1 sequence (Q13421 with tags, fused parts or gaps): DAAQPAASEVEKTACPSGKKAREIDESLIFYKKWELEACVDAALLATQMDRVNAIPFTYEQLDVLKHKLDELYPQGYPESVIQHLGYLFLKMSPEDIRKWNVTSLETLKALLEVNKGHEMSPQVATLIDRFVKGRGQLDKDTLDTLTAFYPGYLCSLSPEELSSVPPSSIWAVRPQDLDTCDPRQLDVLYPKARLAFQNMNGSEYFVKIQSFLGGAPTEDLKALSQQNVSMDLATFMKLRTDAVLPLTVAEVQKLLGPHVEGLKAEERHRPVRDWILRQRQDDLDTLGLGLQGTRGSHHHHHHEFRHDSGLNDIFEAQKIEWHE
measure: ka (M⁻¹ s⁻¹)
Expressed in M⁻¹ s⁻¹, but write only the number.

molecule	ka / M⁻¹ s⁻¹
M17: human anti-mesothelin scFv SEQ ID NO: 55; full CAR SEQ ID NO: 79 (protein) scFv: EVQLVESGGGLVQPGRSLRLSCAASGFTFDDYAMHWVRQAPGKGLEWVSGISWNSGSTGYADSVKGRFTISRDNAKNSLYLQMNSLRAEDTALYYCAKDSSSWYGGGSAFDIWGQGTMVTVSSGGGGSGGGGSGGGGSSSELTQDPAVSVALGQTVRITCQGDSLRSYYASWYQQKPGQAPVLVIYGKNNRPSGIPDRFSGSSSGNTASLTITGAQAEDEADYYCNSRGSSGNHYVFGTGTKVTVL	522000
M5: human anti-mesothelin scFv SEQ ID NO: 43; full CAR SEQ ID NO: 67 (protein) scFv: QVQLVQSGAEVEKPGASVKVSCKASGYTFTDYYMHWVRQAPGQGLEWMGWINPNSGGTNYAQKFQGRVTMTRDTSISTAYMELSRLRSDDTAVYYCASGWDFDYWGQGTLVTVSSGGGGSGGGGSGGGGSGGGGSDIVMTQSPSSLSASVGDRVTITCRASQSIRYYLSWYQQKPGKAPKLLIYTASILQNGVPSRFSGSGSGTDFTLTISSLQPEDFATYYCLQTYTTPDFGPGTKVEIK	42000
M14: human anti-mesothelin scFv SEQ ID NO: 52; full CAR SEQ ID NO: 76 (protein) scFv: QVQLVQSGAEVRAPGASVKISCKASGFTFRGYYIHWVRQAPGQGLEWMGIINPSGGSRAYAQKFQGRVTMTRDTSTSTVYMELSSLRSDDTAMYYCARTASCGGDCYYLDYWGQGTLVTVSSGGGGSGGGGSGGGGSGGGGSDIQMTQSPPTLSASVGDRVTITCRASENVNIWLAWYQQKPGKAPKLLIYKSSSLASGVPSRFSGSGSGAEFTLTISSLQPDDFATYYCQQYQSYPLTFGGGTKVDIK	2.75e+06

Here is the next item to consider.
*Q* What value of ka has been recorded for this entry: M16: human anti-mesothelin scFv SEQ ID NO: 54; full CAR SEQ ID NO: 78 (protein) scFv: EVQLVESGGGLVQPGRSLRLSCAASGFTFDDYAMHWVRQAPGKGLEWVSGISWNSGSTGYADSVKGRFTISRDNAKNSLYLQMNSLRAEDTALYYCAKDSSSWYGGGSAFDIWGQGTMVTVSSGGGGSGGGGSGGGGSSSELTQEPAVSVALGQTVRITCQGDSLRSYYASWYQQKPGQAPVLVIFGRSRRPSGIPDRFSGSSSGNTASLIITGAQAEDEADYYCNSRDNTANHYVFGTGTKLTVL
*A* 174000
